# System: MS2 coat protein
# measurement_description: apparent KD of MS2 coat protein; designed switch direction (-1 OFF switch, 1 ON switch): -1; higher = weaker reporter binding
# measurement_setup: input ligand: none
Class 1: apparent KD of MS2 coat protein at least 30 nM. Class 0: apparent KD of MS2 coat protein below 30 nM.

# sequence_input, measurement_target, class_name
measured = [
    ("ACCGUGUGAGGAUAUCCGUAGCUGAGGCACCUCGCAAACAUGGAGAAGGCACAUGAGGAUCACCCAUGUGAACC [Eternabot (Original) Solution 27] (Eterna round: R97, puzzle: Exclusion 4)", "MS2 coat protein", 0),
    ("UACAUGAGGAUCACCCAUGUUUUGUCGUGUAUGGUAUUUAUCUAGGAUAUCAAUCAAUUUAUUUAUGAGAAGGAGAAUAUUAAU [JMF's solution 49] (Eterna round: R96, puzzle: Exclusion NG 3)", "MS2 coat protein", 1),
    ("ACCUUACUGGUCAGGAUAUACAGUCUUUGGUGUGUGUAGAAGGGACAUGAGGAUCACCCAUGUAGGUUGCAGUA [alecazam60] (Eterna round: R97, puzzle: Brourd's mod of Exclusion 4)", "MS2 coat protein", 1),
    ("UAAUAACAAGCGAGAUCCUACAUGAGGAUCACCCAUGUGCUCGUCUUAUAAGGUACUGUGACGAAAGUCACGGUACC [Eli 87 + Mat D67] (Eterna round: R97, puzzle: Sensor, turn-off variant 1)", "MS2 coat protein", 0),
    ("AGCUGUGGCCGAGGAUAUUACGAACCAUGGAAAACCAUGGAAACUCUACAUGAGGAUCACCCAUGUAAGAAGGCGGUCUCAGCA [Eli eng2 - 024] (Eterna round: R96, puzzle: Exclusion NG 2)", "MS2 coat protein", 0),
    ("UAUAUGUCAGGAUAUCGAUUGGAAUGGAAUUUAGUUUUGGUUGAGAAGGGACAUGAGGAUCACCCAUGUUUUUC [EX4 #62] (Eterna round: R97, puzzle: Exclusion 4)", "MS2 coat protein", 1),
    ("AAACGCUGAGGAUAUAUAUAACAACAAAGCCUCACGUGCCAACAUGAGGAUCACCCAUGUAGAAGGCAGCCCAA [Mod R3 Insanara 12 - Jieux - Exclusion 2] (Eterna round: R97, puzzle: Exclusion 2)", "MS2 coat protein", 0),
    ("AACGUGCUGCGAGGAUAUACAUGAGGAUCACCCAUGUGGAUGUCUGAGGCAAAGCCUCAGACAAUGUAGAAGGCGCAGUACGAA [Mat - Exclusion NG 2 - Mod of JL - D57] (Eterna round: R96, puzzle: Exclusion NG 2)", "MS2 coat protein", 0),
    ("UAAGAAUACUGAGGAUAUGCUAGUUUAUCUCAAGCAGAAGGCGGACUCAACAUGAGGAUCACCCAUGUAAGACGGGUACUAGAU [Ex NG1 #13] (Eterna round: R96, puzzle: Exclusion NG 1)", "MS2 coat protein", 1),
]
